System: RXF 393
experimental.details: NCI tumour cell line growth inhibition, 48 h
Active and inactive are the calls of the source. Cut-off read from the data, not from the text of the source: active = GI50 up to about 1.1 µM and inactive = higher.
reported.property: GI50

[[record]]
molecule = "CCOC(=O)/C(C(N)=O)=C(O)/C(O)=C(\\Br)C(=O)c1ccccc1"
reported_property = "GI50"
result = "15.6 µM (inactive)"

[[record]]
molecule = "Cc1cc(C)nc(NS(=O)(=O)c2ccc(Nc3c4ccc(Cl)cc4nc4c(C(=O)Nc5ccc(S(=O)(=O)N=C(N)N)cc5)cccc34)cc2)n1"
reported_property = "GI50"
result = "29.4 µM (inactive)"

[[record]]
molecule = "CC(O)=NC(Cc1ccc2ccccc2c1)C(O)=NC(Cc1ccc(Cl)cc1)C(O)=NC(Cc1c[nH]c2ccccc12)C(O)=NC(CO)C(O)=NC(Cc1ccc(O)cc1)C(O)=NC(CCCN=C(N)N)C(O)=NC(CC(C)C)C(O)=NC(CCCN=C(N)N)C(=O)N1CCCC1C(O)=NC(C)C(=N)O (centres undefined)"
reported_property = "GI50"
result = "37.1 µM (inactive)"

[[record]]
molecule = "COC(=O)/C=C\\C(C#N)(C#N)/N=C/c1ccc(Br)s1"
reported_property = "GI50"
result = "2.03 µM (inactive)"


====

System: MDA-MB-435
experimental.details: NCI tumour cell line growth inhibition, 48 h
Activity calls are given as the source filed them. No stated cut-off is given here; in the data, active = GI50 up to about 1.1 µM and inactive = higher.
reported.property: GI50

[[record]]
compound = "COC(=O)CNCC1OC2OC(C)(C)OC2C1N=[N+]=[N-] (stereo unspecified)"
result = "> 100 µM (inactive)"

[[record]]
compound = "Cc1ccc(NC(=O)CCc2nnc3s/c(=C\\C=C\\c4ccccc4)c(=O)n23)cc1"
result = "> 86.5 µM (inactive)"

[[record]]
compound = "CC1(C)O[C@H]2Cn3c(c(C#N)c4ccccc43)[C@H]2O1"
result = "> 100 µM (inactive)"

[[record]]
compound = "O=C(CNCc1ccccc1)Oc1c(Cl)c(Cl)c(Cl)c(Cl)c1Cl"
result = "35.2 µM (inactive)"

[[record]]
compound = "CN(C)c1ccc(C(c2ccc(Cl)cc2)c2ccc(N(C)C)cc2)cc1"
result = "> 100 µM (inactive)"

[[record]]
compound = "Cn1c(NNc2ccccc2)cc(=O)[nH]c1=O"
result = "20.9 µM (inactive)"

[[record]]
compound = "O=c1oc2ccc3ccccc3c2cc1-c1nnc(-c2ccc([N+](=O)[O-])cc2)[nH]1"
result = "> 100 µM (inactive)"

[[record]]
compound = "COC(CN(C(=O)c1ccccc1)C1CCC2(SCCS2)c2[nH]c3ccccc3c21)OC (stereo unspecified)"
result = "15.6 µM (inactive)"

[[record]]
compound = "CC1(C)OC2OC(C(=O)c3ccccc3)C3OC(C)(C)OC3C2O1 (stereo unspecified)"
result = "> 100 µM (inactive)"

[[record]]
compound = "CCOP(=O)(C=C=C(C)C)OCC"
result = "> 100 µM (inactive)"

[[record]]
compound = "CCOP(=O)(C/C=C/Cn1nc(Br)c(=O)[nH]c1=O)OCC"
result = "> 100 µM (inactive)"


====

Test system: IGROV-1
experimental.details: NCI tumour cell line growth inhibition, 48 h
Active and inactive are the calls of the source. Cut-off read from the data, not from the text of the source: active = GI50 up to about 1.1 µM and inactive = higher.
reported.property: GI50

[[record]]
molecule = "CC(=O)Nc1ccc(/C=C(\\NC(=O)c2ccccc2)C(=O)NNS(=O)(=O)c2ccc(C)cc2)cc1"
result = "> 100 µM (inactive)"

[[record]]
molecule = "CCOC(=O)C(O)(NC(C)=O)C(F)(F)F (stereo not given)"
result = "> 100 µM (inactive)"

[[record]]
molecule = "O=S(=O)(c1ccccc1)C1(C2(S(=O)(=O)c3ccccc3)CCN=N2)CCN=N1 (stereo not given)"
result = "> 100 µM (inactive)"

[[record]]
molecule = "COC(=O)CC(=O)OSc1ccccc1"
result = "7.71 µM (inactive)"

[[record]]
molecule = "Cc1ccc(NC(=O)C2C(=O)N(c3ccc(C)c(C)c3)C(=O)/C2=N\\NC(N)=O)cc1C (stereo not given)"
result = "89.5 µM (inactive)"

[[record]]
molecule = "C(=N\\c1ccc(-c2nc3ccccc3[nH]2)cc1)/c1cccs1"
result = "19.8 µM (inactive)"

[[record]]
molecule = "O=C1NC(=O)C(c2c[nH]c3cc(Br)ccc23)=C1c1cn(C(c2ccccc2)(c2ccccc2)c2ccccc2)cn1"
result = "12 µM (inactive)"

[[record]]
molecule = "C[C@@H](C(=O)O)N1C(c2ccco2)=C(/C(C=O)=C\\c2ccco2)C(=O)/C1=C\\c1ccco1"
result = "> 100 µM (inactive)"

[[record]]
molecule = "c1ccc2c(c1)Nc1nc3nonc3nc1N2"
result = "> 100 µM (inactive)"

[[record]]
molecule = "CC1=NN2C(=N)/C(=C/c3ccco3)C(=O)N=C2S1"
result = "> 100 µM (inactive)"

